- study.target: human NaV subtype, like NaV 1.7 (Homo sapiens, UniProt Q15858)
- Sequence (Q15858 whole entry): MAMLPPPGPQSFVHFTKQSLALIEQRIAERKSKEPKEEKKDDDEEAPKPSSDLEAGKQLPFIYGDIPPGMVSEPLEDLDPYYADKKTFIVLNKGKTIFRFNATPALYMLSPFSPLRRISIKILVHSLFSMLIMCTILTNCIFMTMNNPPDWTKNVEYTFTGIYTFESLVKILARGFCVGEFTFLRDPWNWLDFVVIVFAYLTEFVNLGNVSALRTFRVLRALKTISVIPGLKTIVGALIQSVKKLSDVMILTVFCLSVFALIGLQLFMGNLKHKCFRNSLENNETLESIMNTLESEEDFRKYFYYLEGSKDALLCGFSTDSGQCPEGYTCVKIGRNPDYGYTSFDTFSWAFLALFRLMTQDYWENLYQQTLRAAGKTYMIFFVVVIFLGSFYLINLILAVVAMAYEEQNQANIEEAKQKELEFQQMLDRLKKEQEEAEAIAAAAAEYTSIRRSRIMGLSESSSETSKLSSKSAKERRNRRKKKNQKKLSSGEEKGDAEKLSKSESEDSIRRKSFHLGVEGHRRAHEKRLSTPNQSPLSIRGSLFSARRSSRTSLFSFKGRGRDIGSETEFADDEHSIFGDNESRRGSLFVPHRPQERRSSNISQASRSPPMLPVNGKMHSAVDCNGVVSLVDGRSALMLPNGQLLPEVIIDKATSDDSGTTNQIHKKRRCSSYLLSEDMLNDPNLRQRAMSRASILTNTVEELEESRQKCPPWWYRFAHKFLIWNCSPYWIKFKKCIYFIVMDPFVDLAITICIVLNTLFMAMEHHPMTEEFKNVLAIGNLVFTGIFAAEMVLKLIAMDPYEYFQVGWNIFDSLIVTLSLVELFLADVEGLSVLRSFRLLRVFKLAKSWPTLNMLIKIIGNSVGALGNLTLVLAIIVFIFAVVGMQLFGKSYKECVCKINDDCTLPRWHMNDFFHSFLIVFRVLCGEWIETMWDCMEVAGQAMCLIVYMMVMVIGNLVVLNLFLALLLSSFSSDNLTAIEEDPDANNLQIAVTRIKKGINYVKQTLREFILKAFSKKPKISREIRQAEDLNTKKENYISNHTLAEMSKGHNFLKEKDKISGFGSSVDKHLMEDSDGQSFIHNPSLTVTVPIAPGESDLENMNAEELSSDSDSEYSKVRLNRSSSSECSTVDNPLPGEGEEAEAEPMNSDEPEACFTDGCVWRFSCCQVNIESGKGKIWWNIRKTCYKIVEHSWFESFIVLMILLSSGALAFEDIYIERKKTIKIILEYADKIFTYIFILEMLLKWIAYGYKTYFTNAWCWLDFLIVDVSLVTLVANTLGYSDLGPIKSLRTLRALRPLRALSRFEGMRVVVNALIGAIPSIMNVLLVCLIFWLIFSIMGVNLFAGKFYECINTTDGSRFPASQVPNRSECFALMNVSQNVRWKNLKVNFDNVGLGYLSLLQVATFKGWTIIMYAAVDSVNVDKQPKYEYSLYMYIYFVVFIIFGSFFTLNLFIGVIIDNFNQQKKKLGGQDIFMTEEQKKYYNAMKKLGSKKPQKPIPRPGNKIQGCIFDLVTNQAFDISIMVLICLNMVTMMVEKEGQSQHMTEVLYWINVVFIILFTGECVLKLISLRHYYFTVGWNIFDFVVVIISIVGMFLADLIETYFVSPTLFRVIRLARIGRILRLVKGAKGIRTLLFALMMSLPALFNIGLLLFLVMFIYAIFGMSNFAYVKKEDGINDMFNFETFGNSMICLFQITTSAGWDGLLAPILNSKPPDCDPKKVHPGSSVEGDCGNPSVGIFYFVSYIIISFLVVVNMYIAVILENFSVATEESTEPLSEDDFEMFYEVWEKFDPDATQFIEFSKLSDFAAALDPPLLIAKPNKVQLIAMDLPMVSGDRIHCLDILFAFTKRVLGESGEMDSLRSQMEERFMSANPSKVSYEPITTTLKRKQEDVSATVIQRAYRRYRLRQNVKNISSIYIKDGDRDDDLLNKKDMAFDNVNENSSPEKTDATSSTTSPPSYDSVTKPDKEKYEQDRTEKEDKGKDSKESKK
- test.method.notes: E-VIPR optical membrane potential assay with electrical stimulation
- assay.setup: active against one or more sodium channels; Table 3 does not name the assay or NaV subtype; read-out: Binned Activity Data (IC50)
readout: IC50

molecule="Cc1cc(C(=O)N2CCC3(CC2)c2ccc(C(=O)C(F)(F)F)n2CCN3C)ccc1C(C)(C)O [Compound 266]" readout=IC50 measured_result="≤ 2000 nM"
molecule="COc1ccc(C(=O)N2CCC3(CC2)c2ccc(C(=O)c4ccccc4)n2CCN3C)cc1C(F)(F)F [Compound 180]" readout=IC50 measured_result="≤ 2000 nM"
molecule="COc1cc(C(=O)N2CCC3(CC2)NCCn2c(C(F)(F)F)ccc23)ccc1OC(C)(C)C [Compound 435]" readout=IC50 measured_result="2000 to 5000 nM"
molecule="COc1cc(C(=O)N2CCC3(CC2)c2ccc(C(F)(F)F)n2CCN3C)ccc1C(C)(C)CO [Compound 151]" readout=IC50 measured_result="≤ 2000 nM"

====

- study.target: human NaV subtype, like NaV 1.7 (Homo sapiens)
- test.method.notes: E-VIPR optical membrane potential assay with electrical stimulation
- assay.setup: active against one or more sodium channels; Table 3 does not name the assay or NaV subtype; read-out: Binned Activity Data (IC50)
pIC50: −log10 of the molar value.
readout: pIC50

compound="COc1cc(C(=O)N2CCC3(CC2)c2ccc(C(=O)C(F)(F)F)n2CCN3C)ccc1OC(C)C [Compound 315]" measured_result="≥ 5.70"
compound="CC[C@H](C)Oc1ccc(C(=O)N2CCC3(CC2)c2ccc(C(C)=O)n2CCN3C)cc1OC [Compound 609]" measured_result="5.30 to 5.70"
compound="CN1CCn2c(C(F)(F)F)cc(Cl)c2C12CCN(C(=O)c1ccc(C(C)(C)O)c(F)c1)CC2 [Compound 95]" measured_result="≥ 5.70"
compound="COc1cc(C(=O)N2CCC3(CC2)NC(C)(C)Cn2c(C(=O)C(F)(F)F)ccc23)ccc1C(C)(C)C [Compound 705]" measured_result="≥ 5.70"
compound="O=C(c1ccc(S(=O)(=O)NC2CC2)cc1)N1CCC2(CC1)c1ccc(C(F)(F)F)n1CCN2C1CCC1 [Compound 145]" measured_result="< 5.30"
compound="CC(C)Oc1ccc(C(=O)N2CCC3(CC2)c2ccc(C(F)(F)F)n2C[C@@H](C)N3C)c(F)c1 [Compound 749]" measured_result="5.30 to 5.70"
compound="Cc1nc(C(=O)N2CCC3(CC2)c2c(F)cc(C(F)(F)F)n2CCN3C)ccc1OC(C)C [Compound 206]" measured_result="≥ 5.70"
compound="CCCOc1ccc(C(=O)N2CCC3(CC2)c2c(F)cc(C(F)(F)F)n2CCN3C)cc1 [Compound 18]" measured_result="≥ 5.70"
compound="COc1ccc(C(=O)N2CCC3(CC2)c2cc(C(=O)C(F)(F)F)cn2C(C)(C)CN3C)cc1Cl [Compound 529]" measured_result="< 5.30"
compound="CC(C)Cc1ccc(C(=O)N2CCC3(CC2)c2ccc(Cl)n2CCN3C)cc1 [Compound 73]" measured_result="5.30 to 5.70"
compound="CN1CCn2c(C(=O)C(F)(F)F)ccc2C12CCN(C(=O)c1ccc(C3CCCCC3)cn1)CC2 [Compound 638]" measured_result="≥ 5.70"
compound="Cc1cc(C(=O)N2CCC3(CC2)c2c(F)cc(C(F)(F)F)n2CCN3C)ccc1OCC(C)(C)O [Compound 217]" measured_result="≥ 5.70"
compound="CC1(C)Cn2c(C(=O)C(F)(F)F)ccc2C2(CCN(C(=O)c3ccc(S(=O)(=O)NC4CC4)cc3)CC2)N1 [Compound 442]" measured_result="≥ 5.70"
compound="CN1CCn2c(C(=O)C3(C)CC3)ccc2C12CCN(C(=O)c1ccc(O)c(C(F)(F)F)c1)CC2 [Compound 685]" measured_result="≥ 5.70"
compound="COc1ncc(F)cc1C(=O)N1CCC2(CC1)c1ccc(C(F)(F)F)n1CCN2C [Compound 605]" measured_result="< 5.30"
